Data origin, for the record: patent US20160002318A1

# System: HA of influenza B virus B/Brisbane/60/2008 (live virus) (influenza B virus B/Brisbane/60/2008)
# Protocol details: cell-based or functional assay
Quantity name: VNA titers (µg/mL)
Numbers only, in µg/mL.

Quick request: VNA titers for each listed item, please.
1. CR11038 (antibody, V domains shown) VH: EVQLVESGAEVKKPGASVKVSCKASGYAFTSYYLHWVRQAPGQGLEWMGIMNPHGGSTTYAQKFQGRVTMTRDTSTSTVYMELSSLRSEDTAVYYCARESPDSSGYPGYYGMDVWGQGTTVTVSS VL: SYELTQPPSASGTPGQRVTMSCSGSRSNIGSNPVSWFQQLPGMVPKLLIYTNDQRPSGVPDRFSGSKSGPSASLAISGLQSEDEADYYCAAWDDSLKGWVFGGGTKLTVL
2. CR11035 (antibody, V domains shown) VH: QVQLVQSGAEVKKPGSSVKVSCKTSGYAFNGYGISWVRQAPGQGLEWVAWINTYKVNTHYAQNLRGRVTVSIDTSTTTAYMELRSLRSDDTAVYYCARDWGGPFGNAFDFWGQGTMVTVSS VL: DIQMTQSPSSLAASIGDSVTITCRASQSVGSYLNWYQQKPGKAPKLLIYGASNVQSGVPSRFSGSESGTESTLTINNLQPEDSATYYCQQSYSTPRTFGQGTKVEIK

1: 0.55; 2: 0.93

Quick request: VNA titers for each listed item, please.
1. CR8071 (antibody, V domains shown) VH: QVQLVQSGAEVKKPGASVRVSCRASGYIFTESGITWVRQAPGQGLEWMGWISGYSGDTKYAQKLQGRVTMTKDTSTTTAYMELRSLRYDDTAVYYCARDVQYSGSYLGAYYFDYWSPGTLVTVSS VL: QSVLTQPPSASGTPGQRVTISCSGSSSNIGTNYVYWYQQFPGTAPKLLIYRSYQRPSGVPDRFSGSKSGSSASLAISGLQSEDEADYYCATWDDSLDGWVFGGGTKLTVLR
2. CR8059 (antibody, V domains shown) VH: EVQLVQSGAEVKKPGASVRVSCRASGYIFTESGITWVRQAPGQGLEWMGWISGYSGDTKYAQKLQGRVTMTKDTSTTTAYMELRSLRYDDTAVYYCARDVQYSGSYLGAYYFDYWSPGTLVTVSS VL: SYVLTQPPSASGTPGQRVTISCSGSSSNIGTNYVYWYQQFPGTAPKLLIYRSYQRPSGVPDRFSGSKSGSSASLAISGLQSEDEADYYCATWDDSLNGWVFGGGTKLTVL

1: 3.72; 2: 4.55
